Reported Activity values for the following compounds.
- Test system: Neuron
- experimentalProtocol: Neuroprotective effect against H202-induced Sprague-Dawley rat neuron injury assessed as early apoptic cells by annexin V-propidium iodide staining by flow cytometry (reference value: 3.09% +/- 1.40%)
- Format: functional

- compound: "CCOc1ccc(C(C)(O)/C=C/C2=C(C)CCCC2(C)C)cc1 (stereo not drawn)"
  displayUnit: "%"
  Activity: 50.34
- compound: "CSc1ccc(C(C)(O)/C=C/C2C(C)=CCCC2(C)C)cc1 (stereo not drawn)"
  displayUnit: "%"
  Activity: 50.55
- compound: "CC1=CCCC(C)(C)C1/C=C/C(C)(O)c1ccsc1 (stereo not drawn)"
  displayUnit: "%"
  Activity: 50.9

----------
- System: Neuron
- experimentalProtocol: Neuroprotective effect against H202-induced Sprague-Dawley rat neuron injury assessed as viable cells by annexin V-propidium iodide staining by flow cytometry (reference value: 93.66%+/-2.19%)
- Type: functional

- compound: "CCCCCOc1ccc(C(C)(O)/C=C/C2C(C)=CCCC2(C)C)cc1 (stereo unspecified)"
  Activity: "60.91%"
- compound: "CSc1ccc(C(C)(O)/C=C/C2C(C)=CCCC2(C)C)cc1 (stereo unspecified)"
  Activity: "33.43%"
- compound: "COc1ccc(C(C)(O)/C=C/C2C(C)=CCCC2(C)C)cc1OC (stereo unspecified)"
  Activity: "3.9%"
- compound: "CC1=CCCC(C)(C)C1/C=C/C(C)(O)c1ccc(C(F)(F)F)cc1 (stereo unspecified)"
  Activity: "5.09%"
- compound: "COc1ccc(C(C)(O)/C=C/C2C(C)=CCCC2(C)C)cc1 (stereo unspecified)"
  Activity: "37.75%"
- compound: "COc1ccccc1C(C)(O)/C=C/C1C(C)=CCCC1(C)C (stereo unspecified)"
  Activity: "44.4%"
- compound: "CCOc1ccc(C(C)(O)/C=C/C2=C(C)CCCC2(C)C)cc1 (stereo unspecified)"
  Activity: "33.1%"
- compound: "COc1cccc(C(C)(O)/C=C/C2C(C)=CCCC2(C)C)c1 (stereo unspecified)"
  Activity: "61.7%"
- compound: "CCCCCOc1ccc(C(C)(O)/C=C/C2=C(C)CCCC2(C)C)cc1 (stereo unspecified)"
  Activity: "69.25%"
- compound: "CCOc1ccc(C(C)(O)/C=C/C2C(C)=CCCC2(C)C)cc1 (stereo unspecified)"
  Activity: "50.8%"
- compound: "CC1=CCCC(C)(C)C1/C=C/C(C)(O)c1ccc(C(C)(C)C)cc1 (stereo unspecified)"
  Activity: "7.36%"
- compound: "CCCOc1ccc(C(C)(O)/C=C/C2C(C)=CCCC2(C)C)cc1 (stereo unspecified)"
  Activity: "91.9%"
- compound: "COc1cccc(C(C)(O)/C=C/C2=C(C)CCCC2(C)C)c1 (stereo unspecified)"
  Activity: "82.3%"
- compound: "CC1=CCCC(C)(C)C1/C=C/C(C)(O)c1ccccc1 (stereo unspecified)"
  Activity: "6.5%"
- compound: "COc1cc(/C=C/C(=O)CC(=O)/C=C/c2ccc(O)c(OC)c2)ccc1O"
  Activity: "79.9%"
- compound: "COc1ccccc1C(C)(O)/C=C/C1=C(C)CCCC1(C)C (stereo unspecified)"
  Activity: "19%"
- compound: "C[C@]12N[C@H](Cc3ccccc31)c1ccccc12.O=C(O)/C=C\\C(=O)O [DIZOCILPINE MALEATE]"
  Activity: "82.45%"
- compound: "COc1ccc(C(C)(O)/C=C/C2=C(C)CCCC2(C)C)cc1 (stereo unspecified)"
  Activity: "75.25%"
- compound: "CSc1ccc(C(C)(O)/C=C/C2=C(C)CCCC2(C)C)cc1 (stereo unspecified)"
  Activity: "66.4%"
- compound: "CC1=CCCC(C)(C)C1/C=C/C(C)(O)c1ccsc1 (stereo unspecified)"
  Activity: "6.8%"
- compound: "CC1=CCCC(C)(C)C1/C=C/C(C)(O)c1cc(C)ccc1C (stereo unspecified)"
  Activity: "6.4%"

The origin of these recorded values is ChEMBL document CHEMBL1157877.
